# System: MCF7 (human breast adenocarcinoma cell line)
# method: MTT cell viability assay, MCF7 cells
# Type: cell-based
# condition_details: Homo sapiens, MCF7, 48 h, isolated compounds, 0 to 200 µM, mean ± SEM (n = 3), read-out: IC50 (50% cell growth inhibition) MCF-7
recorded_metric: IC50 (µM)
Kindly answer with a numeric value in µM, unit omitted.

Ask: // map COC(=O)C1=CC(=O)C=C2C1(C(=O)OC)CCC(C)C21CC(c2ccoc2)OC1=O (stereo not shown) [Compound 1, megalocarpoidolide D] to recorded IC50 (system: MCF7 (human breast adenocarcinoma cell line))
Reply: 136

###

Kindly state IC50 for each of the entries shown.
# Test system: A549 (adenocarcinoma human alveolar basal epithelial cell line)
# method: MTT cell viability assay, A549 cells
# Assay type: cell-based
# condition_details: Homo sapiens, A549, isolated compounds, 0 to 200 µM, 48 h, mean ± SEM (n = 3), read-out: IC50 (50% cell growth inhibition) A549
Kindly answer with a numeric value in µM, unit omitted.

Ask: Entry CC(=O)O[C@H]1CC[C@]2(C)[C@H]3CC[C@]4(C)C(=CC[C@@]5(C(=O)O)CCC(C)(C)C[C@H]54)[C@]3(C)CC[C@H]2C1(C)C has what IC50?
Reply: 137

Ask: Entry COc1cccc2c1C(=O)c1c(O)c3c(c(O)c1C2=O)C[C@@](O)(C(=O)CO)C[C@@H]3O[C@H]1C[C@H](N)[C@H](O)[C@H](C)O1 [Doxorubicin, reference compound] has what IC50?
Reply: 1.3

Ask: Entry COC(=O)C1=CCCC2C1(C(=O)OC)CCC(C)C21CC(c2ccoc2)OC1=O (stereo not drawn) [Compound 5, 12-epi-crotocorylifuran] has what IC50?
Reply: 107
